SUBJECT_OF_TEST: KRAS-G12D protein (Homo sapiens, UniProt P01116, G12D)
Sequence (P01116 1-188 isoform P01116-2 G12D): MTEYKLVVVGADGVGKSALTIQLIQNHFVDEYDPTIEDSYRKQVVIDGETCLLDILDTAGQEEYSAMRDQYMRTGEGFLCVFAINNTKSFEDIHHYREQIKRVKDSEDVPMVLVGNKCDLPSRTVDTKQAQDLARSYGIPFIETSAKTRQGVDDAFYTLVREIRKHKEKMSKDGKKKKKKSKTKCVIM
TEST_SUMMARY: SOS-mediated nucleotide exchange assay (BODIPY-GDP / Tb-streptavidin TR-FRET)
Format: biochemical
*1 amine or outer side, *2 acyl side, *3 side chain or, on linkers, in order; H or OH if unused. Where a SMILES comes first, the peptide text is derived from it. Bridges are numbered along the chain shown (N, C = ends). [ ]: non-standard residue; d: D form. Ala(1-bicyclo(1.1.1)pentyl) = N[C@@H](CC12CC(C1)C2)C(=O)O; X75 = CCC[C@H](N[*:1])c1nncn1[C@@H](Cc1ccccc1)C(=O)[*:2]; Phe(4-guanidino) = N=C(N)Nc1ccc(C[C@H](N)C(=O)O)cc1; X22 = CNC(=N)N(C)CCC[C@@H](C(=O)[*:2])N(C)[*:1]; Ala(pyrimidin-5-yl) = N[C@@H](Cc1cncnc1)C(=O)O; NMePhe(3-Me) = CN[C@@H](Cc1cccc(C)c1)C(=O)O; NMePhe(3-F) = CN[C@@H](Cc1cccc(F)c1)C(=O)O; Arg(Me2s) = CN=C(NC)NCCC[C@H](N)C(=O)O; Nle(5,5-F2) = CC(F)(F)CC[C@H](N)C(=O)O; Phe(3-F) = N[C@@H](Cc1cccc(F)c1)C(=O)O; X35 = CN([C@@H](CCCF)C(=O)[*:2])[*:1]; Phe(2-F) = N[C@@H](Cc1ccccc1F)C(=O)O; X31 = O=C([C@H](CCC1CC1)N[*:1])[*:2]; NMe3Pal = CN[C@@H](Cc1cccnc1)C(=O)O; X1 = O=C(C12CC(CN[*:1])(C1)C2)[*:2]; Ala(cPr) = N[C@@H](CC1CC1)C(=O)O; NMeF = CN[C@@H](Cc1ccccc1)C(=O)O; PhLac = O=C(O)[C@@H](O)Cc1ccccc1; 3Pal = N[C@@H](Cc1cccnc1)C(=O)O; Cba = N[C@@H](CC1CCC1)C(=O)O; hLeu = CC(C)CC[C@H](N)C(=O)O; αMeC = C[C@](N)(CS)C(=O)O; NMeA = CN[C@@H](C)C(=O)O; Nle = CCCC[C@H](N)C(=O)O
MEASUREMENT_KIND: pEC50
The value called pEC50 is obtained by taking minus log10 of the concentration in mol/L.

Reference set, count: 4
>>> readout_number("CCCC[C@@H]1NC(=O)[C@H](Cc2cncnc2)NC(=O)[C@H](C)N(C)C(=O)[C@H](Cc2ccccc2)OC(=O)C23CC(CNC(=O)[C@H](Cc4cccc(F)c4)N(C)C(=O)[C@H](CCCC)NC(=O)[C@H](Cc4ccccc4F)NC1=O)(C2)C3 [compound 174] (cyclo([NMeA][Ala(pyrimidin-5-yl)][Nle][Phe(2-F)][Nle][NMePhe(3-F)][X1][PhLac]))")
7.91
>>> readout_number("CCCC[C@@H]1NC(=O)[C@H](Cc2ccccc2F)NC(=O)[C@H](CC(C)C)NC(=O)[C@H](Cc2cncnc2)NC(=O)[C@H](C)N(C)C(=O)[C@H](Cc2ccccc2)OC(=O)C23CC(CNC(=O)[C@H](Cc4cccnc4)N(C)C1=O)(C2)C3 [compound 129] (cyclo([PhLac][NMeA][Ala(pyrimidin-5-yl)]L[Phe(2-F)][Nle][NMe3Pal][X1]))")
8.36
>>> readout_number("CCCC[C@@H]1NC(=O)[C@H](Cc2ccc(OC)cc2)NC(=O)[C@H](CC(C)C)NC(=O)[C@H](Cc2ccc(NC(=N)N)cc2)NC(=O)[C@H](CCCN=C(NC)NC)NC(=O)[C@H](Cc2ccccc2)NC(=O)CSC[C@H](C(N)=O)NC(=O)[C@H](Cc2ccccc2)N(C)C1=O [compound 46] ({CH2CO}-F[Arg(Me2s)][Phe(4-guanidino)]LY(Me)[Nle][NMeF][dC]-NH2; thioether N-8)")
5.94
>>> readout_number("C[C@H]1C(=O)N[C@@H](Cc2cncnc2)C(=O)N[C@@H](CC2CC2)C(=O)N[C@@H](Cc2ccccc2F)C(=O)NC2CC/C=C\\CC[C@@H](C(=O)NCC34CC(C3)(C4)C(=O)O[C@@H](Cc3ccccc3)C(=O)N1C)N(C)C2=O [SEQ ID NO: 182]")
6.65

In: Tell me pEC50 reported for CCC[C@@H]1NC(=O)[C@H](Cc2ccc(OC)cc2)NC(=O)[C@H](CC2CCC2)NC(=O)[C@H](Cc2cccnc2)NC(=O)[C@H](CCCNC(=N)N)NC(=O)[C@H](Cc2ccccc2)NC(=O)CSC[C@H](C(N)=O)NC(=O)[C@H](Cc2ccccc2)n2cnnc21 [SEQ ID NO: 64] ({CH2CO}-FR[3Pal][Cba]Y(Me)[X75][dC]-NH2; thioether N-7)
Out: 5.55

In: Assign pEC50 to the following record: Cc1cccc(C[C@H]2C(=O)NCC34CC(C3)(C4)C(=O)O[C@@H](Cc3ccccc3)C(=O)N(C)[C@@H](C)C(=O)N[C@@H](Cc3cncnc3)C(=O)N[C@@H](CC3CC3)C(=O)N[C@@H](Cc3ccccc3F)C(=O)N[C@@H](CCC3CC3)C(=O)N2C)c1 [compound 334] (cyclo([Ala(cPr)][Phe(2-F)][X31][NMePhe(3-Me)][X1][PhLac][NMeA][Ala(pyrimidin-5-yl)]))
Out: 8.70

In: Item CC(C)CC[C@@H]1NC(=O)[C@H](Cc2ccccc2F)NC(=O)[C@H](CC23CC(C2)C3)NC(=O)[C@H](Cc2cncnc2)NC(=O)[C@H](C)N(C)C(=O)[C@H](Cc2ccccc2)OC(=O)C23CC(CNC(=O)[C@H](Cc4ccccc4)N(C)C1=O)(C2)C3 [compound 272] (cyclo([NMeA][Ala(pyrimidin-5-yl)][Ala(1-bicyclo(1.1.1)pentyl)][Phe(2-F)][hLeu][NMeF][X1][PhLac])) : provide pEC50
Out: 6.32

In: Input CCCC[C@@H]1NC(=O)[C@H](Cc2cccnc2)NC(=O)[C@H](CCCN(C)C(=N)NC)N(C)C(=O)[C@H](Cc2ccccc2)OC(=O)CSC[C@@](C)(C(N)=O)NC(=O)[C@H](Cc2cccnc2)N(C)C(=O)[C@H](CCCC)NC(=O)[C@H](Cc2ccccc2F)NC1=O [compound 396] ({CH2CO}-[PhLac][X22][3Pal][Nle][Phe(2-F)][Nle][NMe3Pal][αMeC]-NH2; thioether N-8) , output reported pEC50.
Out: 8.75

In: Read the entry CC(C)CC[C@@H]1NC(=O)[C@H](Cc2cccc(F)c2)NC(=O)[C@H](CC2CCC2)NC(=O)[C@H](Cc2cncnc2)NC(=O)[C@H](C)N(C)C(=O)[C@H](Cc2ccccc2)OC(=O)C23CC(CNC(=O)[C@H](Cc4ccccc4)N(C)C1=O)(C2)C3 [compound 303] (cyclo([Cba][Phe(3-F)][hLeu][NMeF][X1][PhLac][NMeA][Ala(pyrimidin-5-yl)])) and write its reported pEC50.
Out: 7.22

In: Output measured pEC50 for this item: CC(C)CC[C@@H]1NC(=O)[C@H](Cc2ccccc2F)NC(=O)[C@H](CC2CC2)NC(=O)[C@H](Cc2cncnc2)NC(=O)[C@H](CCCF)N(C)C(=O)[C@H](Cc2ccccc2)OC(=O)C23CC(CNC(=O)[C@H](Cc4ccccc4)N(C)C1=O)(C2)C3 [compound 216] (cyclo([Ala(cPr)][Phe(2-F)][hLeu][NMeF][X1][PhLac][X35][Ala(pyrimidin-5-yl)]))
Out: 7.59

In: For the compound C[C@H]1C(=O)N[C@@H](Cc2cncnc2)C(=O)N[C@@H](CC2CCC2)C(=O)N[C@@H](Cc2ccccc2F)C(=O)N[C@@H](CCC(C)(F)F)C(=O)N(C)[C@@H](Cc2ccccc2)C(=O)NCC23CC(C2)(C3)C(=O)O[C@@H](Cc2ccccc2)C(=O)N1C [compound 224] (cyclo([Cba][Phe(2-F)][Nle(5,5-F2)][NMeF][X1][PhLac][NMeA][Ala(pyrimidin-5-yl)])) , give its measured pEC50 value.
Out: 8.62
